Assay: Permeability of the compound at pH 7.4 by artificial membrane permeability assay
Assay type: ADME
Conditions: PAMPA, read-out: permeability
measured endpoint: Papp (×10⁻⁶ cm/s)

mol smiles | data value
CNC(=O)c1cc(C(=O)N[C@H]2C[C@@H]2C)cc([C@@H](CC#N)c2ccccc2)n1 | 35.3
CNC(=O)c1cc(C(=O)N[C@H]2C[C@H](O)C2)cc(Cc2ccccc2)n1 | 7.3
CNC(=O)c1cc(C(=O)N[C@H]2C[C@@H]2C)cc([C@@H](CO)c2ccccc2)n1 | 10
CNC(=O)c1cc(C(=O)NC2CC2)cc(Cc2cccc3cn[nH]c23)n1 | 20
CNC(=O)c1cc(C(=O)NC2COC2)cc(Cc2ccccc2)n1 | 16

(A) CNC(=O)c1cc(C(=O)N[C@H]2[C@@H]3C[C@H](O)C[C@@H]32)cc(Cc2ccccc2)n1
(B) CNC(=O)c1cc(C(=O)N[C@H]2C[C@@H]2C)cc(Cc2ccccc2)n1
(C) CNC(=O)c1cc(C(=O)NC2CC2)cc(Cc2ccccc2)n1
(D) CNC(=O)c1cc(C(=O)N[C@H]2[C@@H]3COC[C@@H]32)cc(Cc2ccccc2)n1
Enquiry: Ordering criterion: Papp; begin with the maximum. Kindly provide the labels arranged according to the requested ordering.
Return: B, C, D, A
(B: 63 ×10⁻⁶ cm/s, C: 38.5 ×10⁻⁶ cm/s, D: 21.5 ×10⁻⁶ cm/s, A: 15 ×10⁻⁶ cm/s)
